Target: T1, human high affinity trimeric IL-2 receptor (CD25/CD122/CD132) (human, UniProt P01589 22-272; P14784 27-551; P31785 23-369)
T1 sequence 1: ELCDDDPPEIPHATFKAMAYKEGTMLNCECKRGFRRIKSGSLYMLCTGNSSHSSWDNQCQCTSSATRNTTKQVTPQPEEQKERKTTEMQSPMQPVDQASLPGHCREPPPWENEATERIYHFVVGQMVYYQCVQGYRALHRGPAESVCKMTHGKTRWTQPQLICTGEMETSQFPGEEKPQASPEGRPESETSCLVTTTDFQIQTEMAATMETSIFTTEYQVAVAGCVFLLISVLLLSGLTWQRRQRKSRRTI
T1 sequence 2: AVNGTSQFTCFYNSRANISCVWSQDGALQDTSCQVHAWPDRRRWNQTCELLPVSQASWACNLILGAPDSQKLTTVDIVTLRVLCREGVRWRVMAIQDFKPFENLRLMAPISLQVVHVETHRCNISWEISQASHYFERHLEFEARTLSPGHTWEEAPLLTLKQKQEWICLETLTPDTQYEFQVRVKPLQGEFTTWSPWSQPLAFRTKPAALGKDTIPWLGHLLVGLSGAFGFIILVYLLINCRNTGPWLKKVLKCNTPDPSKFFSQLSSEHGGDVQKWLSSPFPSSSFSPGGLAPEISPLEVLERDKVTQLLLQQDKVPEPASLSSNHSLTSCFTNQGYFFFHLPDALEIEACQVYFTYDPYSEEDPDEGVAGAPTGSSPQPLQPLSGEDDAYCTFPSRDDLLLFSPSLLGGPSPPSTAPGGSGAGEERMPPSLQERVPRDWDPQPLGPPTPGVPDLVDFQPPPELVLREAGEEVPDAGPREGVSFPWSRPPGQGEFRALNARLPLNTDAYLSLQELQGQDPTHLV
T1 sequence 3: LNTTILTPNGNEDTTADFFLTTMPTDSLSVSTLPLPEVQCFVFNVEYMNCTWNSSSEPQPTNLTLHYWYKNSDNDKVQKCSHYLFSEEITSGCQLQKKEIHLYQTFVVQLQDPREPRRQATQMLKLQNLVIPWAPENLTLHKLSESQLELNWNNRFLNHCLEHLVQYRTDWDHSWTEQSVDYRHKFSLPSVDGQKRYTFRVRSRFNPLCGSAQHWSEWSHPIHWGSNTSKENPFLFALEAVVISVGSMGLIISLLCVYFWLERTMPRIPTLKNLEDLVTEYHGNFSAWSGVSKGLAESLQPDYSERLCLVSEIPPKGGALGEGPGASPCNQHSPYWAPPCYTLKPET
Test: cell-based or functional assay
Kindly state pSTAT5 ratio YT CD25/YT, dilution factor 128, upper table for each of the entries shown.
# print the numeric value only

**Q:** I am curious: what pSTAT5 ratio YT CD25/YT, dilution factor 128, upper table value has been reported for EEH (ligand) cytokine: APTSSSTKKTQLQLEHLELDLEMILNGINNYKNPKLTRMLTFKFYMPKKATELKHLQCLEEELKPLEEVLNLAQSKNFHLRPRDLISNINVIVLELKGSETTFMCEYADETATIVEFLNRWITFCHSIISTLT ?
**A:** 17

**Q:** I am curious: what pSTAT5 ratio YT CD25/YT, dilution factor 128, upper table value has been reported for MEH (ligand) cytokine: APTSSSTKKTQLQLEHLMLDLEMILNGINNYKNPKLTRMLTFKFYMPKKATELKHLQCLEEELKPLEEVLNLAQSKNFHLRPRDLISNINVIVLELKGSETTFMCEYADETATIVEFLNRWITFCHSIISTLT ?
**A:** 4.5

**Q:** I am curious: what pSTAT5 ratio YT CD25/YT, dilution factor 128, upper table value has been reported for AEH (ligand) cytokine: APTSSSTKKTQLQLEHLALDLEMILNGINNYKNPKLTRMLTFKFYMPKKATELKHLQCLEEELKPLEEVLNLAQSKNFHLRPRDLISNINVIVLELKGSETTFMCEYADETATIVEFLNRWITFCHSIISTLT ?
**A:** 17.9

**Q:** I am curious: what pSTAT5 ratio YT CD25/YT, dilution factor 128, upper table value has been reported for WEH (ligand) cytokine: APTSSSTKKTQLQLEHLWLDLEMILNGINNYKNPKLTRMLTFKFYMPKKATELKHLQCLEEELKPLEEVLNLAQSKNFHLRPRDLISNINVIVLELKGSETTFMCEYADETATIVEFLNRWITFCHSIISTLT ?
**A:** 10
